Here the recorded Ranking score is given for each entry.
- system.under.test: human NTCP (Homo sapiens)
- Sequence (Q14973 1-349): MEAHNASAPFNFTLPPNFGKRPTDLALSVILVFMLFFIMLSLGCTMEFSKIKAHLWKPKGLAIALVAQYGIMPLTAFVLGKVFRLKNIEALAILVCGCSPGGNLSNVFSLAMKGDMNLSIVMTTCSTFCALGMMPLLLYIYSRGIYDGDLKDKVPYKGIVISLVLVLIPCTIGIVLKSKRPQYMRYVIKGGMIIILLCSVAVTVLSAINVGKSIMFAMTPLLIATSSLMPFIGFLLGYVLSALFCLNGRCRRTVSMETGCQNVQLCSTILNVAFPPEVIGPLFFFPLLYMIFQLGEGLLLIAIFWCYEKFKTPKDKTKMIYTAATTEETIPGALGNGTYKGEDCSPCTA
- assay.remarks: Screening taurocholate uptake assay (96-well, [14C]taurocholate, 10 µM drug)
- condition.context: ranking over the functional and the binding screening assay
Structures can show the parent of a compound that is named as a salt.
Respond with the number and no other words.

// below: answered molecules
CN(C)CCCC1(c2ccc(F)cc2)OCc2cc(C#N)ccc21 (stereo not drawn) [Citalopram Hydrobromide]: 277.496
CC[C@@H](CO)NCCN[C@@H](CC)CO [Ethambutol dihydrochloride]: 218.945

# ---- query molecule ----
Missing value: Ranking score, human NTCP (Homo sapiens), entry C[C@@H]1[C@H](O)[C@@H](C)/C=C/C=C/C=C/C=C/C=C/C=C/C=C/[C@H](O[C@@H]2O[C@H](C)[C@@H](O)[C@H](N)[C@@H]2O)C[C@@H]2O[C@](O)(C[C@@H](O)C[C@@H](O)[C@H](O)CC[C@@H](O)C[C@@H](O)CC(=O)O[C@H]1C)C[C@H](O)[C@H]2C(=O)O . Fill in? 61.0819

###

- system.under.test: human NTCP (Homo sapiens)
- assay.remarks: Screening taurocholate uptake assay (96-well, [14C]taurocholate, 10 µM drug)
- condition.context: Prestwick library screen, taurocholate uptake, 10 µM drug
Counter-ions that a name gives are not always drawn.
Here the recorded B-score functional assay is given for each entry.
Respond with the number and no other words.

CC(O)(P(=O)([O-])O)P(=O)([O-])O.[Na+].[Na+] [Etidronic acid, disodium salt]: -0.023
Oc1ncnc2[nH]ncc12: 0.076
Nc1nc(N)nc(-c2cc(Cl)ccc2Cl)n1 [Irsogladine maleate]: 5.029

Which B-score functional assay reading was recorded for the compound Nc1c2c(nc3ccccc13)CCCC2 [Tacrine hydrochloride] ? -0.044

What would you report for CN1CCC(=C2c3ccccc3C=Cc3ccccc32)CC1 [Cyproheptadine hydrochloride] ? -0.111

What would you report for CCCCC(=O)O[C@H]1CC[C@H]2[C@@H]3CCc4cc(O)ccc4[C@H]3CC[C@]12C [Estradiol Valerate] ? -0.153

What would you report for C=CC(N)CCC(=O)O (stereo not shown) ? -0.08

###

- system.under.test: human NTCP (Homo sapiens, UniProt Q14973)
- Sequence (Q14973 1-349): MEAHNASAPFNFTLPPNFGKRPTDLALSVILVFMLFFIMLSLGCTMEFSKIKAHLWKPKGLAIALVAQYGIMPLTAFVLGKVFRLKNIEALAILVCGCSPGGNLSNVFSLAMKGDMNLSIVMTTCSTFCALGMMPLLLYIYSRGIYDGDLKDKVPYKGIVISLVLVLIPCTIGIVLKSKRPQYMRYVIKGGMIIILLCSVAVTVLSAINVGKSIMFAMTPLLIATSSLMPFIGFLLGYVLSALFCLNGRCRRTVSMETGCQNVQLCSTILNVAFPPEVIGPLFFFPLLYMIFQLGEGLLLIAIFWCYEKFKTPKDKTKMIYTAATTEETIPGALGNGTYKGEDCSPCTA
- assay.remarks: Screening taurocholate uptake assay (96-well, [14C]taurocholate, 10 µM drug)
- condition.context: ranking over the functional and the binding screening assay
Where a name gives a salt, the structure may show the parent alone.
Here the recorded Ranking score is given for each entry.
Respond with the number and no other words.

Which Ranking score reading was recorded for the molecule COc1cc(C(=O)NS(=O)(=O)c2ccccc2C)ccc1Cc1cn(C)c2ccc(NC(=O)OC3CCCC3)cc12 [Zafirlukast] ? 4.472

What would you report for NC(=O)NC1NC(=O)NC1=O (centres unmarked) [Allantoin] ? 134.967

What would you report for CN(C)C/C=C(\c1ccc(Br)cc1)c1cccnc1.Cl.Cl.O [Zimelidine dihydrochloride monohydrate] ? 266.786

What would you report for CC(=O)[N-]S(=O)(=O)c1ccc(N)cc1.O.[Na+] [Sulfacetamide sodic hydrate] ? 277.153

What would you report for CNCCC(Oc1ccc(C(F)(F)F)cc1)c1ccccc1 (centres unmarked) [Fluoxetine hydrochloride] ? 265.518
